# Test system: Staphylococcus sp.
# ASSAY TEXT: In vitro antibacterial evaluation: minimum inhibitory concentration (MIC), broth dilution method
# Type: cell-based
# MEASUREMENT CONDITIONS: broth dilution, 18 hours at 35° C.
Numbered stars: 1 amine (or outer) side, 2 acyl side, 3 side chain; on linkers, the order of the positions; unused ones are H or OH. Square brackets hold non-standard residues; d marks the D form. Peptide text beside a SMILES is read from it. ξ: configuration not given here. X1 = N=C1NCC(C(O)C(N[*:1])C(=O)[*:2])N1C1OC(CO)C(O)C(O)C1O; ξEnduracididine(βξ-OH,4'ξ) = N=C1NCC(C(O)C(N)C(=O)O)N1; Cha = N[CH](CC1CCCCC1)C(=O)O
Reported MIC Coagulase Negative Staphylococcus (GC 4547) by item:
# unit: µg/mL | format: bare number

See these solved cases before continuing.
[
  {
    "COMPOUND": "N=C1NCC(C(O)C2NC(=O)C(CC3CCCCC3)NC(=O)C(CC3CCCCC3)NC(=O)CNC(=O)C(CO)NC(=O)C(C(O)C3CNC(=N)N3C3OC(CO)C(O)C(O)C3O)NC2=O)N1 (stereo not drawn) [Example 52] (cyclo(G[Cha][Cha][ξEnduracididine(βξ-OH,4'ξ)][X1]S); configuration not given here)",
    "VALUE MEASURED": 8
  },
  {
    "COMPOUND": "CC(c1ccccc1)C1NC(=O)CNC(=O)C(CO)NC(=O)C(C(O)C2CN(Cc3ccc(-c4ccccc4)cc3)C(=N)N2C2OC(CO)C(O)C(O)C2O)NC(=O)C(C(O)C2CNC(=NCc3ccc(-c4ccccc4)cc3)N2Cc2ccc(-c3ccccc3)cc2)NC(=O)C(Cc2ccc(OC3OC(CO)C(OC4OC(CO)C(O)C(O)C4O)C(O)C3O)cc2)NC1=O (stereo not shown) [Example 66]",
    "VALUE MEASURED": 4
  },
  {
    "COMPOUND": "CC(c1ccccc1)C1NC(=O)CNC(=O)C(CO)NC(=O)C(CC2CN(Cc3ccccc3)C(=N)N2C2OC(CO)C(O)C(O)C2O)NC(=O)C(CC2CNC(=N)N2)NC(=O)C(Cc2ccc(OC3OC(CO)C(OC4OC5COC6(OC5C(O)C4O)C4CC5CC(C4)CC6C5)C(O)C3O)cc2)NC1=O (stereo not shown) [Example 80]",
    "VALUE MEASURED": 32
  }
]

Next compound, please.
Lookup result for CC(c1ccccc1)C1NC(=O)CNC(=O)C(CO)NC(=O)C(C(O)C2CNC(=N)N2C2OC(CO)C(O)C(O)C2O)NC(=O)C(C(O)C2CNC(=N)N2)NC(=O)C(Cc2ccc3oc(-c4ccccc4OC4OC(CO)C(O)C(O)C4O)nc3c2)NC1=O (stereo not shown) [Example 36] ; measured MIC Coagulase Negative Staphylococcus (GC 4547): 64

* * *

# System: Staphylococcus aureus-SMITH (GC 4543)
# ASSAY TEXT: Acute lethal infection in mice (ED50)
# Format: in vivo
# MEASUREMENT CONDITIONS: female CD-1 mice, intraperitoneal challenge, intravenous dose 30 min. after infection, 7 day survival ratios
MEASUREMENT NAME: median effective dose (ED50), Staphylococcus aureus-SMITH (GC 4543) (mg/kg)
# unit: mg/kg | format: bare number

Lookup result for CC(c1ccccc1)C1NC(=O)CNC(=O)C(CO)NC(=O)C(C(O)C2CNC(=N)N2C2OC(CO)C(O)C(O)C2O)NC(=O)C(C(O)C2CNC(=N)N2)NC(=O)C(Cc2ccc(OC3OC(CO)C(OC4OC(CO)C(OCc5ccc(OCc6ccccc6)cc5)C(O)C4O)C(O)C3O)cc2)NC1=O (centres unmarked) [Example 231a] ; measured median effective dose (ED50), Staphylococcus aureus-SMITH (GC 4543): 0.06

* * *

# System: Staphylococcus sp.
# ASSAY TEXT: In vitro antibacterial evaluation: minimum inhibitory concentration (MIC), broth dilution method
# Format: cell-based
# MEASUREMENT CONDITIONS: broth dilution, 5×10^5 CFU/mL, 18 hours at 35° C.
MEASUREMENT NAME: MIC Staphylococcus aureus (ATCC 29213) (µg/mL)
# unit: µg/mL | format: bare number

See these solved cases before continuing.
[
  {
    "COMPOUND": "CC(c1ccccc1)C1NC(=O)CNC(=O)C(CO)NC(=O)C(C(O)C2CNC(=N)N2C2OC(CO)C(O)C(O)C2O)NC(=O)C(C(O)C2CNC(=N)N2)NC(=O)C(Cc2ccc(OC3OC(CO)C(OC4OC5COC(c6cccc(Cl)c6)OC5C(O)C4O)C(O)C3O)cc2)NC1=O (stereo not shown) [Example 138]",
    "MIC Staphylococcus aureus (ATCC 29213) [µg/mL]": 2
  },
  {
    "COMPOUND": "CCCc1ccc(C2OCC3OC(OC4C(CO)OC(Oc5ccc(CC6NC(=O)C(C(C)c7ccccc7)NC(=O)CNC(=O)C(CO)NC(=O)C(C(O)C7CNC(=N)N7C7OC(CO)C(O)C(O)C7O)NC(=O)C(C(O)C7CNC(=N)N7)NC6=O)cc5)C(O)C4O)C(O)C(O)C3O2)cc1 (stereo not shown) [Example 140]",
    "MIC Staphylococcus aureus (ATCC 29213) [µg/mL]": 1
  },
  {
    "COMPOUND": "CC(c1ccccc1)C1NC(=O)CNC(=O)C(CO)NC(=O)C(C(O)C2CNC(=N)N2C2OC(CO)C(O)C(O)C2O)NC(=O)C(C(O)C2CNC(=N)N2)NC(=O)C(Cc2ccc(OC3OC(CO)C(OC4OC5COC(c6ccc(S(C)(=O)=O)cc6)OC5C(O)C4O)C(O)C3O)cc2)NC1=O (stereo not shown) [Example 157]",
    "MIC Staphylococcus aureus (ATCC 29213) [µg/mL]": 32
  }
]

Next compound, please.
Lookup result for CC(c1ccccc1)C1NC(=O)CNC(=O)C(CO)NC(=O)C(C(O)C2CNC(=N)N2C2OC(CO)C(O)C(O)C2O)NC(=O)C(C(O)C2CNC(=N)N2)NC(=O)C(Cc2ccc(OC3OC(CO)C(OC4OC5COC(c6ccc(-c7cccs7)cc6)OC5C(O)C4O)C(O)C3O)cc2)NC1=O (stereo not shown) [Example 163] ; measured MIC Staphylococcus aureus (ATCC 29213): 4

* * *

Reported MIC Coagulase Negative Staphylococcus (GC 4547) by item:
# Tested on: Staphylococcus sp.
# ASSAY TEXT: In vitro antibacterial evaluation: minimum inhibitory concentration (MIC), broth dilution method
# Assay type: cell-based
# MEASUREMENT CONDITIONS: strain GC 4547
# unit: mg/L | format: bare number

See these solved cases before continuing.
[
  {
    "COMPOUND": "CC(c1ccccc1)C1NC(=O)CNC(=O)C(CO)NC(=O)C(C(O)C2CNC(=N)N2C2OC(CO)C(O)C(O)C2O)NC(=O)C(C(O)C2CNC(=N)N2)NC(=O)C(Cc2ccc(OC3OC(CO)C(OC4OC5COC(C)(c6ccc(F)cc6)OC5C(O)C4O)C(O)C3O)cc2)NC1=O (stereo not shown)",
    "VALUE MEASURED": 2
  },
  {
    "COMPOUND": "N=C1NCC(C(O)C2NC(=O)C(Cc3ccc(OC4OC(CO)C(OC5OC6COC(Cc7ccccc7)OC6C(O)C5O)C(O)C4O)cc3)NC(=O)C(CC3CCCCC3)NC(=O)CNC(=O)C(CO)NC(=O)C(C(O)C3CNC(=N)N3C3OC(CO)C(O)C(O)C3O)NC2=O)N1 (stereo not shown)",
    "VALUE MEASURED": 2
  },
  {
    "COMPOUND": "CC(c1ccccc1)C1NC(=O)CNC(=O)C(CO)NC(=O)C(C(O)C2CNC(=N)N2C2OC(CO)C(O)C(O)C2O)NC(=O)C(C(O)C2CNC(=N)N2)NC(=O)C(Cc2ccc(OC3OC(CO)C(OC4OC5COC6(CCC(C(C)(C)C)CC6)OC5C(O)C4O)C(O)C3O)cc2)NC1=O (stereo not shown)",
    "VALUE MEASURED": 4
  },
  {
    "COMPOUND": "CCCC(C)C1OCC2OC(OC3C(CO)OC(Oc4ccc(CC5NC(=O)C(C(C)c6ccc(Cl)cc6)NC(=O)CNC(=O)C(CO)NC(=O)C(C(O)C6CNC(=N)N6C6OC(CO)C(O)C(O)C6O)NC(=O)C(C(O)C6CNC(=N)N6)NC5=O)cc4)C(O)C3O)C(O)C(O)C2O1 (stereo not shown)",
    "VALUE MEASURED": 1
  }
]

Lookup result for CC(c1ccccc1)C1NC(=O)CNC(=O)C(CO)NC(=O)C(C(O)C2CNC(=N)N2C2OC(CO)C(O)C(O)C2O)NC(=O)C(C(O)C2CNC(=N)N2)NC(=O)C(Cc2ccc(OC3OC(CO)C(OC4OC5COC6(CCCCCCCCCCC6)OC5C(O)C4O)C(O)C3O)cc2)NC1=O (stereo not shown) ; measured MIC Coagulase Negative Staphylococcus (GC 4547): 4

Lookup result for COc1ccc2cc(C3OCC4OC(OC5C(CO)OC(Oc6ccc(CC7NC(=O)C(C(C)c8ccccc8)NC(=O)CNC(=O)C(CO)NC(=O)C(CC8CNC(=N)N8C8OC(CO)C(O)C(O)C8O)NC(=O)C(CC8CNC(=N)N8)NC7=O)cc6)C(O)C5O)C(O)C(O)C4O3)ccc2c1 (stereo not shown) ; measured MIC Coagulase Negative Staphylococcus (GC 4547): 8
